molecular target: His-tagged human recombinant kinase full-length Akt1 (Homo sapiens, UniProt P31749); construct: His-tagged human recombinant kinase full-length Akt1; His; assay: Akt1 kinase assay (TR-FRET); conditions: 10 μM ATP, 60 min at 22° C., read-out: Akt1, median IC50
Sequence (P31749 whole entry): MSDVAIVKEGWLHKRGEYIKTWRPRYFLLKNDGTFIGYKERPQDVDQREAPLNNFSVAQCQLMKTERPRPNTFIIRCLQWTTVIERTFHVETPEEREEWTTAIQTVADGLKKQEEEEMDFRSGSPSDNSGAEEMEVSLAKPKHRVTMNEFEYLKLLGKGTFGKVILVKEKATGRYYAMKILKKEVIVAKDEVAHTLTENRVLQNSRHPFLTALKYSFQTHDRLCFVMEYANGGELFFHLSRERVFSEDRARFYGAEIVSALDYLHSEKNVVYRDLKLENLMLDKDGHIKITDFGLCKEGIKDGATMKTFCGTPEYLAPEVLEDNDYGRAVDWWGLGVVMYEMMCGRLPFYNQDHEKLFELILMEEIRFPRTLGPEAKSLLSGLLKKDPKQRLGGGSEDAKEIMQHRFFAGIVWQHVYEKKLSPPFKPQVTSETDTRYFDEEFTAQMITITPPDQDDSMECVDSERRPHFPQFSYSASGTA
pIC50: −log10 of the molar value.
Here, each record is paired with measured pIC50 data.

COMPOUND	pIC50
CNc1c(-c2ccccc2)c(-c2ccc(C3(N)CCC3)cc2)nc2nc(C)nn12 [Example 5-13]	5.65
CNc1nc2nc(-c3ccc(C4(N)CCC4)cc3)c(-c3ccccc3)cn2n1 [Example 5-3]	6.28
CS(=O)(=O)c1ccc(-c2cnc3nc(-c4ccc(C5(N)CCC5)cc4)c(-c4ccccc4)cn23)cc1 [Example 4-0]	6.48
COCCNc1c(-c2ccccc2)c(-c2ccc(C3(N)CCC3)cc2)nc2nc(C)nn12 [Example 5-14]	5.49
Cc1nc2nc(-c3ccc(C4(N)CCC4)cc3)c(-c3ccccc3)c(NC3CCC3)n2n1 [Example 5-8]	6.14
COC[C@H](C)Nc1c(-c2ccccc2)c(-c2ccc(C3(N)CCC3)cc2)nc2nccn12 [Example 2-4]	4.97
Cc1nc2nc(-c3ccc(C4(N)CCC4)cc3)c(-c3ccccc3)c(NCCc3ccc(F)cc3)n2n1 [Example 3-5]	4.72
Cc1nc2nc(-c3ccc(C4(N)CCC4)cc3)c(-c3ccccc3)c(NC3CC3)n2n1 [Example 5-12]	5.73
Cc1nc2nc(-c3ccc(C4(N)CCC4)cc3)c(-c3ccccc3)cn2n1 [Example 1-0]	6.10
CCNc1c(-c2ccccc2)c(-c2ccc(C3(N)CCC3)cc2)nc2nc(C)nn12 [Example 5-11]	5.76
CCNc1nc2nc(-c3ccc(C4(N)CCC4)cc3)c(-c3ccccc3)cn2n1 [Example 5-1]	6.02
NC1(c2ccc(-c3nc4nccn4cc3-c3ccccc3)cc2)CCC1 [Example 2-0]	5.65
NC1(c2ccc(-c3nc4nc(C5CC5)nn4cc3-c3ccccc3)cc2)CCC1 [Example 1-4]	6.12
COCCNc1nc2nc(-c3ccc(C4(N)CCC4)cc3)c(-c3ccccc3)cn2n1 [Example 5-0]	5.74
NC1(c2ccc(-c3nc4ncc(-c5cn[nH]c5)n4cc3-c3ccccc3)cc2)CCC1 [Example 6-3]	6.63
Cn1cc(-c2nc3nc(-c4ccc(C5(N)CCC5)cc4)c(-c4ccccc4)cn3n2)cn1 [Example 5-2]	6.42

###

The reader will find reported pIC50 values listed item by item below.
molecular target: His-tagged human recombinant kinase full-length Akt2 (Homo sapiens, UniProt P31751); construct: His-tagged human recombinant kinase full-length Akt2; His; assay: Akt2 kinase assay (TR-FRET); conditions: 10 μM ATP, 60 min at 22° C., read-out: Akt2, median IC50
Sequence (P31751 whole entry): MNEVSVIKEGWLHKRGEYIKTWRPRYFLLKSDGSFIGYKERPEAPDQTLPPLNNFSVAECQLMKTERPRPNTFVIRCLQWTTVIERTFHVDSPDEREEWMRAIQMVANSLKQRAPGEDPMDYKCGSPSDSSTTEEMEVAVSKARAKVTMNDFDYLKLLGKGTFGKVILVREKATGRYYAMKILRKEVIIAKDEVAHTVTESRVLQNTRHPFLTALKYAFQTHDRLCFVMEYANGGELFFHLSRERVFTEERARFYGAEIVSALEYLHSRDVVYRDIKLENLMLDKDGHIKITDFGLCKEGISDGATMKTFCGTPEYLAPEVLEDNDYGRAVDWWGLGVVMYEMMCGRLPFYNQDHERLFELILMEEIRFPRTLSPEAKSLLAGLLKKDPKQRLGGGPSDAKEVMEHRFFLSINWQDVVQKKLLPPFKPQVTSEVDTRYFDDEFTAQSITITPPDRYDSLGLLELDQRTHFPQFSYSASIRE
pIC50: −log10 of the molar value.
REPORTED_METRIC: pIC50

1) NC1(c2ccc(-c3nc4nc(C5CC5)nn4c(N[C@H]4CC[C@H](O)CC4)c3-c3ccccc3)cc2)CCC1 6.03
2) CCNc1c(-c2ccccc2)c(-c2ccc(C3(N)CCC3)cc2)nc2nc(C)nn12 5.95
3) CCOC(=O)C1(Nc2c(-c3ccccc3)c(-c3ccc(C4(N)CCC4)cc3)nc3nc(C)nn23)CCC1 5.95
4) COCCNc1nc2nc(-c3ccc(C4(N)CCC4)cc3)c(-c3ccccc3)cn2n1 6.06
5) COC[C@H](C)Nc1c(-c2ccccc2)c(-c2ccc(C3(N)CCC3)cc2)nc2nccn12 5.90
